tested on: velvetleaf (Abutilon theophrasti, ABUTH); test: Post-emerge test, greenhouse herbicide activity screening; format: in vivo; conditions: Rate 250 g ai/ha; rating scale 0-100 (0 no damage, 100 complete death); 14 days after application
Post-emerge Herbicidal Activity, phytotoxicity rating ABUTH values by entry
Returns: the value as a bare number; no unit string appended.

A selection of reference data follows.
compound: CCOC(=O)C(Cl)(CC(=O)OC)Cc1c(OC)c(Cl)cc(F)c1-n1c(=O)cc(C(F)(F)F)n(C)c1=O (stereo not shown)
study_target: velvetleaf (Abutilon theophrasti, ABUTH)
readout_value: 50
//
compound: CCOCCOC(=O)C(Cl)Cc1c(OC)c(Cl)cc(F)c1-n1c(=O)cc(C(F)(F)F)n(C)c1=O (stereo not shown)
study_target: velvetleaf (Abutilon theophrasti, ABUTH)
readout_value: 100

For record COc1c(Cl)cc(F)c(-n2c(=O)cc(C(F)(F)F)n(C)c2=O)c1CC(C)(Cl)C(=O)OCc1ccccc1 (stereo not shown) the listed Post-emerge Herbicidal Activity, phytotoxicity rating ABUTH is 100

For record CCOC(=O)C(Cl)Cc1cc(Cl)cc(F)c1-n1nc(C)n(C(F)F)c1=O (stereo not shown) the listed Post-emerge Herbicidal Activity, phytotoxicity rating ABUTH is 100

For record COc1c(Cl)cc(F)c(-n2c(=O)cc(C(F)(F)F)n(C)c2=O)c1CC(Cl)C(=O)OCCC(C)C (single isomer, unassigned) the listed Post-emerge Herbicidal Activity, phytotoxicity rating ABUTH is 100

For record COc1c(Cl)cc(F)c(-n2c(=O)cc(C(F)(F)F)n(C)c2=O)c1CC(Cl)C(=O)OCC(C)C (single isomer, unassigned) [14-14] the listed Post-emerge Herbicidal Activity, phytotoxicity rating ABUTH is 100

For record COc1c(Cl)cc(F)c(-n2c(=O)cc(C(F)(F)F)n(C)c2=O)c1CC(Cl)C(=O)OCC(F)(F)C(F)F (stereo not shown) the listed Post-emerge Herbicidal Activity, phytotoxicity rating ABUTH is 100

For record COc1c(Cl)cc(F)c(-n2c(=O)cc(C(F)(F)F)n(C)c2=O)c1CC(C)(Cl)C(=O)OC(C)C (stereo not shown) the listed Post-emerge Herbicidal Activity, phytotoxicity rating ABUTH is 100
